test system: HOP-62 NSCLC; assay: NCI-60 one-dose screen, 48 h (100 = growth as untreated, 0 = no growth, -100 = all killed); settings: 10 µM unless noted
About 83,000 compounds went through this panel and 20% of them were active in at least one assay; those are over-represented in the sample as a whole. The source made the active and inactive calls. Rule for the calls: active = growth percent below 10; inactive = the rest.
reported.metric: growth

Hello, I would appreciate it if you could give growth for each entry below.
1. O=Nc1c(-c2cccc([N+](=O)[O-])c2)nc2ncccn12
2. COc1cc(C2C3=C(COC3=O)Nc3cc4c(cc32)CCC4)cc2c1OCO2 (stereo unspecified)
3. Cn1c(=O)cc(NC(=O)CN2CCN(c3cc4c(cc3F)c(=O)c(C(=O)O)cn4C3CC3)CC2)[nH]c1=O
4. CCO/C=N/C1=C(C#N)C(c2ccc(Cl)cc2)c2c(c3ccccc3n(C)c2=O)O1 (stereo unspecified)
5. CC(=O)Oc1csc(N(C(C)=O)c2cccc(C(F)(F)F)c2)n1
6. NC(=O)c1c(NC(=S)Nc2ccc(OC(F)(F)F)cc2)sc2c1CCC1(C2)OCCO1
7. Cc1ccc(C(=O)NCCCNc2nccc(-n3ccc4cccnc43)n2)cc1

Reply:
1. 100% (inactive)
2. 35.5% (inactive)
3. 98.9% (inactive)
4. 64.6% (inactive)
5. 94.4% (inactive)
6. 99.9% (inactive)
7. 104% (inactive)

* * *

system: RPMI-8226 leukemia; assay: NCI-60 one-dose screen, 48 h (100 = growth as untreated, 0 = no growth, -100 = all killed); settings: 10 µM unless noted
This is part of a sample that, as a whole, favours compounds with a hit. Of some 83,000 tested, about 20% had one in any assay.
Provide the recorded growth for the entries that follow.
One number for each entry, in %.

- molecule: "C=C(C)[C@@H]1C[C@H](O)Cc2cc(F)ccc2N1"
  growth / %: 74.8
- molecule: "O=[N+]([O-])c1ccc(C(c2ccccc2)c2ccccc2)cc1"
  growth / %: 98.1
- molecule: "COc1ccc(C(=O)N2NC(=O)/C(=C/c3ccccc3F)N=C2c2ccccc2)cc1"
  growth / %: 119

Query molecule follows.
Ask: // returns reported growth for input C/C=C(\C)C(C(=O)NC1CCCCC1)N(C(=O)C1CCc2cc(F)ccc2O1)c1ccc(Cl)cc1 (centres undefined)
Reply: 100

* * *

system: SF-539 CNS; assay: NCI-60 one-dose screen, 48 h (100 = growth as untreated, 0 = no growth, -100 = all killed); details: 10 µM unless noted
This is part of a sample that, as a whole, favours compounds with a hit. Of some 83,000 tested, about 20% had one in any assay. Active and inactive are the calls of the source. The calls were made as follows: active = growth percent below 10; inactive = the rest.
Provide the recorded growth for the entries that follow.

Worked cases, growth given:
- compound: "O=C1c2c(c3c4ccccc4n(CCCCCCBr)c3c3[nH]c4ccccc4c23)C(=O)N1O"
  measured.result: "-6% (active)"
- compound: "C=C[C@@H]1C[C@H](O)Cc2cc(F)ccc2N1"
  measured.result: "108% (inactive)"

Hello, I would appreciate it if you could give growth for each entry below.
1. COc1cc(C2NN=C3c4ccccc4CCC32)cc(OC)c1OC (stereo unspecified)
2. Cc1cc(C2(c3cc(C)c(O)cc3C)OS(=O)(=O)c3ccccc32)c(C)cc1O
3. CC(C)(C)n1cc(-c2ccnc(NCCCNS(=O)(=O)c3ccc(C(F)(F)F)cc3)c2)c(-c2cccc(O)c2)n1
4. O=[N+]([O-])c1cc(Cl)c2[nH]c3c(Cl)cc([N+](=O)[O-])cc3c2c1
5. Cc1ccc(S(=O)(=O)Nc2c(Br)cc(Br)cc2C(N)=O)cc1
6. Brc1cccc(-c2cc(-c3ccc4c(c3)OCCCO4)[nH]n2)c1
7. OCCCCCCNc1ncnc2cc(Cl)ccc12

Reply:
["85.4% (inactive)", "105% (inactive)", "19.8% (inactive)", "23.8% (inactive)", "101% (inactive)", "77.1% [25 µM] (inactive)", "92.8% (inactive)"]

Hello, I would appreciate it if you could give growth for each entry below.
1. Fc1ccc(CNCCNc2ncnc3c2cnn3-c2ccccc2)cc1
2. ClC(Cl)c1nc(-c2ccccc2)nc2cc(-c3ccccc3)nn12
3. CC(O)CN1CCCCC1 (stereo unspecified)
4. CC(C)C(C(=O)NCCN1CCOCC1)N1C(=O)/C(=C/c2ccc(Br)cc2)SC1=S (stereo unspecified)

Reply:
1. 100% (inactive)
2. 79% (inactive)
3. 111% (inactive)
4. 98.6% (inactive)

Hello, I would appreciate it if you could give growth for each entry below.
1. OB(O)c1cccc(-c2nc3ccc4[nH]ncc4c3c3c2CCCC3)c1F
2. Cc1[nH]c2ccc(F)cc2c1CCNC(=O)C1CCN(C(=O)c2ccccc2)C1 (stereo unspecified)
3. COc1ccc2c(c1)[nH]c(=O)c1c3cc(OC)ccc3cn21
4. O=C1NC(=C(Cl)Cl)/C(=N/S(=O)(=O)N2CCC(C3(C(F)(F)F)N=N3)CC2)N1

Reply:
8.65% (active)
83% [25 µM] (inactive)
7.14% (active)
98.2% (inactive)

Hello, I would appreciate it if you could give growth for each entry below.
1. CC(C)(C)Nc1c(-c2cccs2)nc2ncccn12
2. N=C(N)c1ccc(-c2ccc(-c3ccc(-c4cccs4)s3)s2)cc1
3. CCNc1nc(S(=O)(=O)CC)nc2ccccc12
4. CCc1ccc(-c2ccc(=O)n(-c3ccc(S(N)(=O)=O)cc3)n2)cc1

Reply:
97.5% (inactive)
88.5% (inactive)
88.3% (inactive)
43.6% (inactive)

Hello, I would appreciate it if you could give growth for each entry below.
1. O=C(c1ccccc1)c1c(/C=C/c2ccccc2)c2ccccc2[nH]c1=O
2. Brc1ccc(-c2[nH]ncc2-c2c[nH]c3ccccc23)cc1
3. CCOC(=O)c1cc(C(=O)c2cc(OC)c(OC)c(OC)c2)n2c1ccc1ccccc12
4. COc1ccc(C(=O)n2nc(/C=C/c3ccc(O)c(OC)c3)cc2/C=C/c2ccc(O)c(OC)c2)cc1
5. CC(=O)Oc1csc(N(C(C)=O)c2cc(C(=O)O)cc(C(=O)O)c2)n1

Reply:
["99.2% (inactive)", "93.3% (inactive)", "-13.4% (active)", "-24.4% (active)", "89.6% (inactive)"]
